# Test system: HCC-366
# assayExplanation: relative viability (nuclei count vs DMSO), 5 days (fraction); higher = more cells survive
# conditionSet: first compound 6.325 µM
Entries annotated with measured relative viability
readout: relative viability

compound="COCC1(CO)C(=O)C2CCN1CC2 (stereo not given) [PRIMA-1MET] + CS(=O)(=O)N1CCN(Cc2cc3nc(-c4cccc5[nH]ncc45)nc(N4CCOCC4)c3s2)CC1 [Pictilisib] (partner 1 µM)" measuredtarget=HCC-366 readout="relative viability" numericvalue=0.123
compound="COCC1(CO)C(=O)C2CCN1CC2 (stereo not given) [PRIMA-1MET] + O=C(CCCCCCC(=O)Nc1ccccc1)NO [Vorinostat] (partner 1 µM)" measuredtarget=HCC-366 readout="relative viability" numericvalue=0.336
compound="COCC1(CO)C(=O)C2CCN1CC2 (stereo not given) [PRIMA-1MET] + Nc1ncn([C@H]2C[C@H](O)[C@@H](CO)O2)c(=O)n1 [Decitabine] (partner 2 µM)" measuredtarget=HCC-366 readout="relative viability" numericvalue=0.423
compound="COCC1(CO)C(=O)C2CCN1CC2 (stereo not given) [PRIMA-1MET] + Cc1nc(Nc2ncc(C(=O)Nc3c(C)cccc3Cl)s2)cc(N2CCN(CCO)CC2)n1 [Dasatinib] (partner 0.075 µM)" measuredtarget=HCC-366 readout="relative viability" numericvalue=0.67
compound="COCC1(CO)C(=O)C2CCN1CC2 (stereo not given) [PRIMA-1MET] + CC(C)C[C@H](NC(=O)[C@H](Cc1ccccc1)NC(=O)c1cnccn1)B(O)O [Bortezomib] (partner 0.002 µM)" measuredtarget=HCC-366 readout="relative viability" numericvalue=1.01

----------
Recorded relative viability values for a group of molecules are listed next.
# Test system: NCI-H838
# assayExplanation: relative viability (nuclei count vs DMSO), 5 days (fraction); higher = more cells survive
# conditionSet: first compound 0.1 µM
readout: relative viability

molecule="CCN(CC)CCCCNc1ncc2cc(-c3cc(OC)cc(OC)c3)c(NC(=O)NC(C)(C)C)nc2n1 + CC1(C)CCC(c2ccc(Cl)cc2)=C(CN2CCN(c3ccc(C(=O)NS(=O)(=O)c4ccc(N[C@H](CCN5CCOCC5)CSc5ccccc5)c(S(=O)(=O)C(F)(F)F)c4)cc3)CC2)C1 [Navitoclax] (partner 0.5 µM)" readout="relative viability" numericvalue=1.44
molecule="O=c1cc(N2CCOCC2)oc2c(-c3cccc4c3sc3ccccc34)cccc12 + CCNC(=O)c1noc(-c2cc(C(C)C)c(O)cc2O)c1-c1ccc(CN2CCOCC2)cc1 [Luminespib] (partner 0.01 µM)" readout="relative viability" numericvalue=0.406

----------
Below, each of the compounds is paired with its reported relative viability value.
# Test system: BEN
# assayExplanation: relative viability (nuclei count vs DMSO), 5 days (fraction); higher = more cells survive
# conditionSet: first compound 0.03162 µM
readout: relative viability

compound="CCN(CC)CCCCNc1ncc2cc(-c3cc(OC)cc(OC)c3)c(NC(=O)NC(C)(C)C)nc2n1 + Nc1ncn([C@H]2C[C@H](O)[C@@H](CO)O2)c(=O)n1 [Decitabine] (partner 2 µM)" numericvalue=0.728
compound="CCN(CC)CCCCNc1ncc2cc(-c3cc(OC)cc(OC)c3)c(NC(=O)NC(C)(C)C)nc2n1 + O=C(c1cc(Cc2n[nH]c(=O)c3ccccc23)ccc1F)N1CCN(C(=O)C2CC2)CC1 [Olaparib] (partner 8 µM)" numericvalue=0.97
compound="O=c1cc(N2CCOCC2)oc2c(-c3cccc4c3sc3ccccc34)cccc12 + O=C(CCCCCCC(=O)Nc1ccccc1)NO [Vorinostat] (partner 1 µM)" numericvalue=0.627

----------
# Test system: HCC-15
# assayExplanation: relative viability (nuclei count vs DMSO), 5 days (fraction); higher = more cells survive
# conditionSet: first compound 0.8 µM
readout: relative viability

compound="O=c1cc(-c2cccc3c2Sc2ccccc2S3)oc(N2CCOCC2)c1 + CS(=O)(=O)N1CCN(Cc2cc3nc(-c4cccc5[nH]ncc45)nc(N4CCOCC4)c3s2)CC1 [Pictilisib] (partner 1 µM)" result=0.797
compound="COc1nc(C)cnc1NS(=O)(=O)c1cccnc1-c1ccc(-c2nnco2)cc1 [Zibotentan] + Nc1nc2[nH]cc(CCc3ccc(C(=O)N[C@@H](CCC(=O)O)C(=O)O)cc3)c2c(=O)[nH]1 [Pemetrexed] (partner 0.2 µM)" result=0.217
compound="COc1nc(C)cnc1NS(=O)(=O)c1cccnc1-c1ccc(-c2nnco2)cc1 [Zibotentan] + CS(=O)(=O)CCNCc1ccc(-c2ccc3ncnc(Nc4ccc(OCc5cccc(F)c5)c(Cl)c4)c3c2)o1 [Lapatinib] (partner 2 µM)" result=0.951

----------
# System: NCI-H1915
# assayExplanation: relative viability (nuclei count vs DMSO), 5 days (fraction); higher = more cells survive
# conditionSet: first compound 2 µM
# note: boundary value 0.4 maps to Not fulfilled; relative viability below it maps to Fulfilled

compound="COCC1(CO)C(=O)C2CCN1CC2 (configuration not stated) [PRIMA-1MET] + C[C@]1(O)C[C@@H](c2nc(-c3ccc4ccc(-c5ccccc5)nc4c3)c3c(N)nccn32)C1 [Linsitinib] (partner 1 µM)" measuredtarget=NCI-H1915 assignedclass="Not fulfilled"
compound="COCC1(CO)C(=O)C2CCN1CC2 (configuration not stated) [PRIMA-1MET] + C[C@@H](Oc1cc(-c2cnn(C3CCNCC3)c2)cnc1N)c1c(Cl)ccc(F)c1Cl [Crizotinib] (partner 1 µM)" measuredtarget=NCI-H1915 assignedclass="Not fulfilled"
compound="COCC1(CO)C(=O)C2CCN1CC2 (configuration not stated) [PRIMA-1MET] + O=C(CCCCCCC(=O)Nc1ccccc1)NO [Vorinostat] (partner 1 µM)" measuredtarget=NCI-H1915 assignedclass="Not fulfilled"
compound="COCC1(CO)C(=O)C2CCN1CC2 (configuration not stated) [PRIMA-1MET] + Nc1ncn([C@H]2C[C@H](O)[C@@H](CO)O2)c(=O)n1 [Decitabine] (partner 2 µM)" measuredtarget=NCI-H1915 assignedclass=Fulfilled
compound="COCC1(CO)C(=O)C2CCN1CC2 (configuration not stated) [PRIMA-1MET] + Nc1nc2[nH]cc(CCc3ccc(C(=O)N[C@@H](CCC(=O)O)C(=O)O)cc3)c2c(=O)[nH]1 [Pemetrexed] (partner 0.2 µM)" measuredtarget=NCI-H1915 assignedclass="Not fulfilled"
compound="COCC1(CO)C(=O)C2CCN1CC2 (configuration not stated) [PRIMA-1MET] + CS(=O)(=O)N1CCN(Cc2cc3nc(-c4cccc5[nH]ncc45)nc(N4CCOCC4)c3s2)CC1 [Pictilisib] (partner 1 µM)" measuredtarget=NCI-H1915 assignedclass="Not fulfilled"
compound="COCC1(CO)C(=O)C2CCN1CC2 (configuration not stated) [PRIMA-1MET] + CC(=O)Nc1cccc(-n2c(=O)n(C3CC3)c(=O)c3c(Nc4ccc(I)cc4F)n(C)c(=O)c(C)c32)c1 [Trametinib] (partner 0.02 µM)" measuredtarget=NCI-H1915 assignedclass=Fulfilled

----------
# System: HOP-62
# assayExplanation: relative viability (nuclei count vs DMSO), 5 days (fraction); higher = more cells survive
# conditionSet: first compound 8 µM
readout: relative viability

compound="O=c1cc(-c2cccc3c2Sc2ccccc2S3)oc(N2CCOCC2)c1 + O=C(CCCCCCC(=O)Nc1ccccc1)NO [Vorinostat] (partner 1 µM)" readout="relative viability" numericvalue=0.664
compound="O=c1cc(-c2cccc3c2Sc2ccccc2S3)oc(N2CCOCC2)c1 + COc1cc2c(Oc3ccc(NC(=O)C4(C(=O)Nc5ccc(F)cc5)CC4)cc3F)ccnc2cc1OCCCN1CCOCC1 [Foretinib] (partner 0.25 µM)" readout="relative viability" numericvalue=1.14
compound="O=c1cc(-c2cccc3c2Sc2ccccc2S3)oc(N2CCOCC2)c1 + COc1cccc2cc(-c3nc([C@H]4CC[C@H](C(=O)O)CC4)n4ncnc(N)c34)[nH]c12 [OSI-027] (partner 0.5 µM)" readout="relative viability" numericvalue=1.07
compound="O=c1cc(-c2cccc3c2Sc2ccccc2S3)oc(N2CCOCC2)c1 + NC(=O)Nc1cc(-c2cccc(F)c2)sc1C(=O)N[C@H]1CCCNC1 [AZD7762] (partner 0.2 µM)" readout="relative viability" numericvalue=0.944

----------
# Tested on: HOP-62
# assayExplanation: relative viability (nuclei count vs DMSO), 5 days (fraction); higher = more cells survive
# conditionSet: first compound 0.2 µM
The threshold is 1. Values of relative viability beneath it are tagged y; values meeting or exceeding it are tagged n.

compound="COCC1(CO)C(=O)C2CCN1CC2 (stereo not given) [PRIMA-1MET] + Nc1ncn([C@H]2C[C@H](O)[C@@H](CO)O2)c(=O)n1 [Decitabine] (partner 2 µM)" measuredtarget=HOP-62 assignedclass=y
compound="COCC1(CO)C(=O)C2CCN1CC2 (stereo not given) [PRIMA-1MET] + CS(=O)(=O)CCNCc1ccc(-c2ccc3ncnc(Nc4ccc(OCc5cccc(F)c5)c(Cl)c4)c3c2)o1 [Lapatinib] (partner 2 µM)" measuredtarget=HOP-62 assignedclass=n
compound="COCC1(CO)C(=O)C2CCN1CC2 (stereo not given) [PRIMA-1MET] + CC(=O)c1c(C)c2cnc(Nc3ccc(N4CCNCC4)cn3)nc2n(C2CCCC2)c1=O [Palbociclib] (partner 0.5 µM)" measuredtarget=HOP-62 assignedclass=y
compound="COCC1(CO)C(=O)C2CCN1CC2 (stereo not given) [PRIMA-1MET] + COc1cc2c(Oc3ccc(NC(=O)C4(C(=O)Nc5ccc(F)cc5)CC4)cc3F)ccnc2cc1OCCCN1CCOCC1 [Foretinib] (partner 0.25 µM)" measuredtarget=HOP-62 assignedclass=n
